From: patent US8722745B2

System: inducible nitric oxide synthase
protocol text: Protein expression of inducible nitric oxide synthase in LPS-stimulated RAW 264.7 macrophages (Western blot)
Format: cell-based, mouse
condition details: RAW 264.7 macrophages stimulated by LPS 0.01 μg/mL, 16 hours, protein expression; read-out: 50% inhibition concentration (IC50), inducible nitric oxide synthase
readout label: pIC50
Worth noting: pIC50 values are minus log10 of concentrations stated in mol/L.

stdin: Look up pIC50: CC(=O)CCS(=O)(=O)CCO
stdout: 5.44
